- system: HEK-293 cells transfected with dox-inducible human wild type FGFR2 (Homo sapiens (Human), UniProt P21802)
- Sequence (P21802 22-821): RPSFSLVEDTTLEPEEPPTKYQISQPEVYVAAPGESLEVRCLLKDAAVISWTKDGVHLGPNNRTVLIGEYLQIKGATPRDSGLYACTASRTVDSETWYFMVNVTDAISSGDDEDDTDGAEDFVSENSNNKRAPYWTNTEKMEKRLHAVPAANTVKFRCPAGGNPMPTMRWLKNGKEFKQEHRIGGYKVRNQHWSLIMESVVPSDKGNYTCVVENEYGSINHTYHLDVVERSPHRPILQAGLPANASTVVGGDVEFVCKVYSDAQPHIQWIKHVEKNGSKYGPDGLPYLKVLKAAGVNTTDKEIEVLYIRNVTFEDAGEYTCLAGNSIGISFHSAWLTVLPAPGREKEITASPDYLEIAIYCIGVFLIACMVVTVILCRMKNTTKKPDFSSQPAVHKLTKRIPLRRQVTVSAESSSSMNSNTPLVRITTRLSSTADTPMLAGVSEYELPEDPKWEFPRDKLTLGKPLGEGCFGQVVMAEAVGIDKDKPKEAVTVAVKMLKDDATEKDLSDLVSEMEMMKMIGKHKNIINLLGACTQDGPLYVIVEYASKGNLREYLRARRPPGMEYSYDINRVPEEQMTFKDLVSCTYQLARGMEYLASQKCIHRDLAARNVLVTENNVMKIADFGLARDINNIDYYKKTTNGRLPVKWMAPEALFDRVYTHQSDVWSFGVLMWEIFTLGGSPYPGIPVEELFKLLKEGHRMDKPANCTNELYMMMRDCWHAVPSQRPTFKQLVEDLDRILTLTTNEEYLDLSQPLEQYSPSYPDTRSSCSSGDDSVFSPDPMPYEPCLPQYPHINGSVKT
- measurementProtocol: FGFR2 pFGFR cell assay (ELISA)
- conditionSummary: HEK-293 dox-inducible FGFR2, 1 hour compound, 30 ng/ml FGF-acidic
propertyLabel: IC50 (nM)
Kindly answer with a numeric value in nM, unit omitted.

Study these solved cases before continuing.
- C=CC(=O)N1CC(CN2CCC(n3ncc(-c4cc(OC)c5c(Cl)cnn5c4)c3C)CC2)(OC)C1 [Example 119]: 322
- COc1cc(-c2cnn(C3CCN(C(=O)C4(OC)CN(C(=O)/C=C/CN(C)C)C4)CC3)c2C)cn2ncc(Cl)c12 [Example 171]: 263
- C=CC(=O)N1CC(C(=O)N2C3CC2CN(c2ccc(-c4cc(OC)c5c(C#N)cnn5c4)cn2)C3)C1 [Example 52]: 766
- C=CC(=O)N1CC(OC)(C(=O)N2CCC(n3ncc(-c4cc(OC)c5c(C#N)cnn5c4)c3C)CC2)C1 [Example 88]: 143
- CC#CC(=O)N1CC(F)(C(=O)N2CCC(n3ncc(-c4cc(OC)c5c(C#N)cnn5c4)c3C)CC2)C1 [Example 156]: 244

Attention now shifts to the item below.
Query (compound): C=CC(=O)N1CC(CN2CCC(n3ncc(-c4cc(OC)c5c(C#N)cnn5c4)c3C)CC2)(OC)C1 [Example 91] ; field requested: IC50
108

====

// values below are reported IC50
- system: recombinant human FGFR2 cytoplasmic domain (amino acids 403-822) (Homo sapiens (Human))
- measurementProtocol: FGFR2 enzyme activity assay (LanthaScreen TR-FRET)
- conditionSummary: 15 μM ATP, 20 min incubation at 22° C., average of multiple determinations if made, read-out: FGFR2 Enz FRET IC50

• COc1cc(-c2cnn(C3CCN(C(=O)C4(OC)CN(C(=O)/C=C/CN(C)C)C4)CC3)c2C)cn2ncc(C#N)c12 = 30 nM
• C=CC(=O)N[C@H]1CC[C@H](C(=O)N2CC[C@H](n3cc(-c4cc(OC)c5c(C#N)cnn5c4)cn3)C2)CC1 = 6 nM
• C=CC(=O)N1CCC(n2cc(-c3cc(OC)c4c(C#N)cnn4c3)cn2)CC1 = 7 nM
• C=CC(=O)N1CC(F)(C(=O)N2CCN(c3cc(C)c(-c4cc(OC)c5c(C#N)cnn5c4)cn3)CC2)C1 = 150 nM
• C=CC(=O)N1CC(C(=O)N2CCC3(C2)CN(c2ccc(-c4cc(OC)c5c(C#N)cnn5c4)cn2)C3)C1 = 10 nM
• C=CC(=O)N1CC(C(=O)N2CC3(C2)CN(c2ccc(-c4cc(OC)c5c(C#N)cnn5c4)cn2)C3)C1 = 20 nM

Query (molecule): C=CC(=O)N1CC(F)(C(=O)N2CCC(n3cc(-c4cc(OC)c5c(Cl)cnn5c4)cn3)CC2)C1 ; field requested: IC50
13 nM

Query (molecule): C#CC(=O)N1CC(C(=O)N2CCC(n3cc(-c4cc(OC)c5c(C#N)cnn5c4)cn3)CC2)C1 ; field requested: IC50
3 nM

Query (molecule): C=CC(=O)N1CC(C(=O)N2CC3CC(C2)N3c2ccc(-c3cc(OC)c4c(C#N)cnn4c3)cn2)C1 ; field requested: IC50
42 nM

Query (molecule): C=CC(=O)N1C[C@H]2C[C@@H]1CN2C(=O)N1CCC(n2cc(-c3cc(OC)c4c(C#N)cnn4c3)cn2)CC1 ; field requested: IC50
11 nM

Query (molecule): C=CC(=O)N[C@H]1CC[C@H](C(=O)N2CC[C@@H](n3cc(-c4cc(OC)c5c(C#N)cnn5c4)cn3)C2)CC1 ; field requested: IC50
16 nM

====

- system: UniProt:P22607
pIC50: −log10 of the molar value.
# pIC50 >= 8 gives Fulfilled, anything below gives Not fulfilled

• C=CC(=O)N1CC(C(=O)N2CCC(n3cc(-c4cc(OC)c5c(C#N)cnn5c4)cn3)CC2)C1(C)C (stereo not shown) [Example 43] = Fulfilled
• C=CC(=O)N1CCC(C#N)(C(=O)N2CCC(n3cc(-c4cc(OC)c5c(C#N)cnn5c4)cn3)CC2)C1 (stereo not shown) [Example 31] = Fulfilled
• C=CS(=O)(=O)N1CC[C@@H](C(=O)N2CCC(n3cc(-c4cc(OC)c5c(C#N)cnn5c4)cn3)CC2)C1 [Example 185] = Fulfilled

Would you say C=CC(=O)N1CCC(n2cc(-c3cc(OC)c4c(C#N)cnn4c3)cn2)CC1 [Example 11] shows pIC50 at minimum 8?
Not fulfilled

====

// values below are reported IC50
- system: recombinant human FGFR2 cytoplasmic domain (amino acids 403-822) (Homo sapiens (Human), UniProt P21802)
- Sequence (P21802 402-821): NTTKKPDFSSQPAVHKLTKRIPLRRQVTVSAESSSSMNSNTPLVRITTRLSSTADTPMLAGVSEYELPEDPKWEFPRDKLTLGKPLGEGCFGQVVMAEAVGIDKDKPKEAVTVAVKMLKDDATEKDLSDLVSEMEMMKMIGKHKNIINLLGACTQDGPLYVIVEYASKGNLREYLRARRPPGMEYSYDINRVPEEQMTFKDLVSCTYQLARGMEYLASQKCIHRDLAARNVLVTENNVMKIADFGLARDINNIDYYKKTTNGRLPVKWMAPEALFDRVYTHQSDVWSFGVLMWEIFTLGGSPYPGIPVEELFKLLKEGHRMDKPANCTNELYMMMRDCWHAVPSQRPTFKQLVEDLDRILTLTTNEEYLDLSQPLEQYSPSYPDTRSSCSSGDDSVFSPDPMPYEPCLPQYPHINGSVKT
- measurementProtocol: FGFR2 enzyme activity assay (LanthaScreen TR-FRET)
- conditionSummary: 15 μM ATP, 20 min incubation at 22° C., average of multiple determinations if made, read-out: FGFR2 Enz FRET IC50
Give me the value, and tack the unit on after it.

Study these solved cases before continuing.
- C=CS(=O)(=O)N1CC[C@@H](C(=O)N2CCC(n3cc(-c4cc(OC)c5c(C#N)cnn5c4)cn3)CC2)C1 [Example 185]: 5 nM
- C=CC(=O)N1CC(C(=O)N2CCC(n3cc(-c4cc(OC)c5c(C#N)cnn5c4)cn3)CC2)C1C (stereo not shown) [Example 42]: 6 nM
- C=CC(=O)N1CC(C)(CN2CCC(n3ncc(-c4cc(OC)c5c(C#N)cnn5c4)c3C)CC2)C1 [Example 90]: 56 nM
- C=CC(=O)N1CC(S(=O)(=O)N2CCC(n3cc(-c4cc(OC)c5c(C#N)cnn5c4)cn3)CC2)C1 [Example 134]: 16 nM
- C=CC(=O)NC1CCC(NC(=O)c2ccc(-c3cc(OC)c4c(C#N)cnn4c3)cc2)CC1 (stereo not shown) [Example 167]: 18 nM
- C=CC(=O)N1CC(C(=O)N2CCN(c3ncc(-c4cc(OC)c5c(C#N)cnn5c4)cn3)CC2)C1 [Example 133]: 63 nM

Query (compound): COc1cc(-c2cnn(C3CCN(C(=O)C4CN(C(=O)/C=C/CN(C)C)C4)CC3)c2C)cn2ncc(C#N)c12 [Example 152] ; field requested: IC50
35 nM

====

- system: recombinant human FGFR3 (amino acids R397-T806) (Homo sapiens (Human), UniProt P22607)
- Sequence (P22607 397-806): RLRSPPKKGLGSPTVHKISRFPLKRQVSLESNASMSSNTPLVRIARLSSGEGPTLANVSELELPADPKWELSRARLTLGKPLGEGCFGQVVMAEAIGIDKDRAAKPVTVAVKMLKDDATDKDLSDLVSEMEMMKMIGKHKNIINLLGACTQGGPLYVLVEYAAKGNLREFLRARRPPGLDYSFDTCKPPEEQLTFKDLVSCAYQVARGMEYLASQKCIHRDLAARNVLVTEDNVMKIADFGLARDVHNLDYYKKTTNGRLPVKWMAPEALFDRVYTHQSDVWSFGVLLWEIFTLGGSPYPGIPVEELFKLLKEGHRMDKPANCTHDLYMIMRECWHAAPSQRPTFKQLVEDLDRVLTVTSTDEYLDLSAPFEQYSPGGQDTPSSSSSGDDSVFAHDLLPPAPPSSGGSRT
- measurementProtocol: FGFR3 enzyme activity assay (LanthaScreen TR-FRET)
- conditionSummary: 25 μM ATP, 10 min incubation at 22° C., average of multiple determinations if made, read-out: FGFR3 Enz FRET IC50
pIC50: −log10 of the molar value.
# pIC50 >= 8 gives Y, anything below gives N

* C=CC(=O)N1C2COCC1CN(C(=O)N1CCC(n3cc(-c4cc(OC)c5c(C#N)cnn5c4)cn3)CC1)C2 | Y
* C=CC(=O)N1CCC(C(=O)N2CC[C@H](n3cc(-c4cc(OC)c5c(C#N)cnn5c4)cn3)C2)CC1 | Y

Attention now turns to another entry.
Would you say C=CC(=O)N1CC(C(=O)N2CCC3(CC2)CN(c2ccc(-c4cc(OC)c5c(C#N)cnn5c4)cn2)C3)C1 shows pIC50 at minimum 8?
N

====

- system: recombinant human FGFR3 (amino acids R397-T806) (Homo sapiens (Human), UniProt P22607)
- measurementProtocol: FGFR3 enzyme activity assay (LanthaScreen TR-FRET)
- conditionSummary: 25 μM ATP, 10 min incubation at 22° C., average of multiple determinations if made, read-out: FGFR3 Enz FRET IC50
pIC50: −log10 of the molar value.
# pIC50 >= 8 gives 1, anything below gives -1

Would you say CCc1c(-c2cc(OC)c3c(C#N)cnn3c2)cnn1C1CCN(C(=O)C2(F)CN(C(=O)/C=C/CN(C)C)C2)CC1 shows pIC50 at minimum 8?
-1

Would you say C=CC(=O)N1CC2(CC(C(=O)N3CCC(n4cc(-c5cc(OC)c6c(C#N)cnn6c5)cn4)CC3)C2)C1 shows pIC50 at minimum 8?
1

Would you say C=CC(=O)N1CCN(C(=O)N2CCC(n3cc(-c4cc(OC)c5c(C#N)cnn5c4)cn3)CC2)CC1 shows pIC50 at minimum 8?
1

Would you say C=CC(=O)N1CC(C(=O)N2CCC(n3cc(-c4cc(OC(C)C)c5c(C#N)cnn5c4)cn3)CC2)C1 shows pIC50 at minimum 8?
1

Would you say C=CC(=O)N1CC(CN2CCC(n3ncc(-c4cc(OC)c5c(Cl)cnn5c4)c3C)CC2)(OC)C1 shows pIC50 at minimum 8?
-1

Would you say C=CC(=O)N1CCN(c2ccc(-c3cc(OC)c4c(C#N)cnn4c3)cc2)CC1 shows pIC50 at minimum 8?
1

Would you say C=CC(=O)N1CC(C#N)(C(=O)N2CCC(n3cc(-c4cc(OC)c5c(C#N)cnn5c4)cn3)CC2)C1 shows pIC50 at minimum 8?
1

Would you say C=CC(=O)N1CC(F)(C(=O)N2CCN(c3ccc(-c4cc(OC)c5c(C#N)cnn5c4)cn3)CC2)C1 shows pIC50 at minimum 8?
-1

Would you say COc1cc(-c2c(C)nn(C3CCN(C(=O)C4(F)CN(C(=O)/C=C/CN(C)C)C4)CC3)c2C)cn2ncc(C#N)c12 shows pIC50 at minimum 8?
-1

Would you say COc1cc(-c2cnn(C3CN(CC4CN(C(=O)/C=C/CN5CCCCC5)C4)C3)c2)cn2ncc(C#N)c12 shows pIC50 at minimum 8?
1

Would you say COc1cc(-c2cnn(C3CCN(C(=O)C4CN(C(=O)C#CCO)C4)CC3)c2)cn2ncc(C#N)c12 shows pIC50 at minimum 8?
1
